- Test system: murine splenocyte suspensions (BALB/c and C57BL/6J mice)
- method_description: Mixed Lymphocyte Reaction (MLR)
- Assay type: cell-based
- conditions_used: Mus musculus, Splenocyte; 5.0 μg/ml; read-out: % MLR (percentage of positive control)
Attribute: activity at 5 µg/mL

>  <compound>
C#CC(=O)CCCCCCCCCCCCCCCC [CH3 (CH2)15 COC≡CH]

>  <value_units>
%

>  <activity at 5 µg/mL>
0

$$$$
>  <compound>
C#CC(O)CCCCCCCCCCCCCCCC (centres unmarked) [CH3 (CH2)15 CHOHC≡CH]

>  <value_units>
%

>  <activity at 5 µg/mL>
0

$$$$
>  <compound>
C#CC(O)CCCCCCC (centres unmarked) [CH3 (CH2)6 CHOHC≡CH]

>  <value_units>
%

>  <activity at 5 µg/mL>
131

$$$$
>  <compound>
C#CC(O)CCCCCCCCCCCCCCC (centres unmarked) [CH3 (CH2)14 CHOHC≡CH]

>  <value_units>
%

>  <activity at 5 µg/mL>
0

$$$$
>  <compound>
C=CC(O)CCCCCCCCCCCCCCCC (centres unmarked) [CH3 (CH2)15 CHOHCH=CH2]

>  <value_units>
%

>  <activity at 5 µg/mL>
0

$$$$
>  <compound>
C#CC(O)C=CC=CCCCC (centres unmarked) [CH3 (CH2)3 CH=CH--CH=CH--CHOHC≡CH]

>  <value_units>
%

>  <activity at 5 µg/mL>
0

$$$$
>  <compound>
C#CC(O)CCC=CCCCCC (centres unmarked) [CH3 (CH2)4 CH=CHCH2 CH2 CHOHC≡CH]

>  <value_units>
%

>  <activity at 5 µg/mL>
110

$$$$
>  <compound>
C#CC(O)CCCC (centres unmarked) [CH3 (CH2)3 CHOHC≡CH]

>  <value_units>
%

>  <activity at 5 µg/mL>
47

$$$$
